Experiment: JHH-DIPG-1 glioma cell viability, MIPE5.0 library, CellTiter-Glo luminescence, qHTS (AID 1347067);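 note: cells exposed to compound for 48 hours before readout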
Conditions: JHH-DIPG-1 glioma viability, CellTiter-Glo ATP luminescence
Inconclusive results are not listed. Calls of active or inactive are those of the source. No cut-off is given here; in the data, nearly all actives have AC50 up to about 26 µM.
Response enum: active, inactive

Look over these answered cases.
{"columns": ["compound", "category"],
 "data": [
  ["C[C@@H]1C[C@H]2[C@@H]3CCC4=CC(=O)C=C[C@]4(C)[C@@]3(F)[C@@H](O)C[C@]2(C)[C@@]1(O)C(=O)CO", "inactive"],
  ["O=C1CCC(N2C(=O)c3ccccc3C2=O)C(=O)N1 (stereo not given)", "inactive"],
  ["NC(N)=NC(=O)c1nc(Cl)c(N)nc1N", "inactive"],
  ["Cn1cc(C2=C(c3c4n(c5ccccc35)CCC(CN)C4)C(=O)NC2=O)c2ccccc21 (stereo not given)", "inactive"],
  ["c1ccc2[nH]c(-c3cscn3)nc2c1", "inactive"]
]}

Any idea what this test logged for COc1cc2ncn(-c3cc(OCc4ccccc4S(C)(=O)=O)c(C#N)s3)c2cc1OC ?
inactive

Any idea what this test logged for NS(=O)(=O)c1cc2c(cc1Cl)NC=NS2(=O)=O ?
inactive

Any idea what this test logged for COc1ccc(-c2oc3ncnc(N)c3c2-c2ccc(NC(=O)Nc3cc(C(F)(F)F)ccc3F)cc2)cc1 ?
active

Any idea what this test logged for CC(C)C(=O)Nc1ccc([N+](=O)[O-])c(C(F)(F)F)c1 ?
inactive

----------
Assay: viability rescue of complex I mutant cybrids, primary screen, cell-based, galactose medium, ATP luminescence (AID 1645843);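 note: positive z means more ATP and so rescue of galactose-driven cybrid death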
Conditions: complex I mutant cybrid cells, 72 h, hits give high values
Activity calls are given as the source filed them.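 Rule for the calls: active = z-score of at least 1.8 in each of two replicates, scored against plate mean and spread of sample wells; inactive = the rest.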
z-score listing for selected compounds.

Observe how each entry below is paired with its result.
{"columns": ["compound", "z-score"],
 "data": [
  ["Fc1ccc(-c2nc3n(c2-c2ccncc2)CCS3)cc1", "-0.365 (inactive)"],
  ["Cc1onc(-c2ccccc2)c1-c1ccc(S(N)(=O)=O)cc1", "-0.505 (inactive)"],
  ["COc1ccc(OC)c(C(O)CNC(=O)CN)c1 (stereo unspecified)", "0.54 (inactive)"],
  ["COC1=CC(=O)C[C@@H](C)[C@]12Oc1c(Cl)c(OC)cc(OC)c1C2=O", "1.05 (inactive)"],
  ["NS(=O)(=O)c1cc2c(cc1C(F)(F)F)NCNS2(=O)=O", "1.47 (inactive)"]
]}

Fill in: z-score of CC[C@H](C)C(=O)O[C@H]1C[C@H](O)C=C2C=C[C@H](C)[C@H](CC[C@@H](O)C[C@@H](O)CC(=O)O)[C@H]21 is ___
0.175 (inactive)

----------
Experiment: growth inhibition of GSK3B-pretreated HCT116 cells – cell-based, CellTiter-Glo, 0.2 to 20 µM (AID 1117336)
Details: HCT116 viability after GSK3B inhibitor, at 20 µM
The source made the active and inactive calls.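 Rule for the calls: active = compounds lowering colon cancer cell viability after pretreatment blocking the GSK3B kinase; inactive = the rest.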
Response enum: 1 = active, 0 = inactive

Any idea what this test logged for N#C[C@H]1C[C@H]2C[C@@H]2N1C(=O)[C@@H](N)C12CC3CC(CC(O)(C3)C1)C2 ?
0

Any idea what this test logged for CC(=O)Nc1ccn(C2COC(COC(=O)c3ccccc3)O2)c(=O)n1 (stereo unspecified) ?
1

Any idea what this test logged for COC(=O)C1=C(C)NC(C)=C(C(=O)OCCc2ccc(N3CCN(C(c4ccccc4)c4ccccc4)CC3)cc2)C1c1cccc([N+](=O)[O-])c1 (stereo unspecified) ?
0

Any idea what this test logged for CO/N=C(\C(=O)O)c1csc(NC(=O)CCl)n1 ?
0

Any idea what this test logged for COC(=O)c1ccc(NC(C)=O)cc1OC ?
0

Any idea what this test logged for Cc1cc(CCCOc2c(C)cc(-c3noc(C(F)(F)F)n3)cc2C)on1 ?
0

Any idea what this test logged for CCN(CC)S(=O)(=O)c1ccc(C(=O)O)cc1 ?
0

Any idea what this test logged for CCCC(O)C(CC)CO (stereo unspecified) ?
0

Any idea what this test logged for O=C(O)COc1nn(Cc2ccccc2)c2ccccc12 ?
0

Any idea what this test logged for CCCCN=C(N)N=C(N)N ?
0

Any idea what this test logged for COC(=O)c1cc(Cl)ccc1NS(=O)(=O)C(F)(F)F ?
0

Hello, the source for this data is PubChem BioAssay, in case you need it.
